We begin with a simple list: items and their reported Zunahme in LV-dp/dtmax.
system: despinalisierten Meerschweinchen; test: Determination of the positive inotropic effect in despinalised guinea pigs; format: in vivo; details: 1 mg/kg i.v. (Vena jugularis), mean of 3 despinalised guinea pigs, left ventricular pressure
Quote the value and follow it with the unit of measurement.

[[record]]
molecule = "CCCOc1cc2ccccc2cc1-c1nc2cnc(Cl)nc2[nH]1 [Substanz D]"
tested_on = "despinalisierten Meerschweinchen"
assay_result = "27%"

[[record]]
molecule = "O=c1ccc2[nH]c(-c3cc4ccccc4cc3Cl)nc2[nH]1 [Substanz B]"
tested_on = "despinalisierten Meerschweinchen"
assay_result = "30%"

[[record]]
molecule = "O=c1[nH][nH]cc2nc(-c3ccc4ccccc4c3)nc1-2 [Substanz A]"
tested_on = "despinalisierten Meerschweinchen"
assay_result = "28%"


# ---- query molecule ----
-- ask # get_value(readout= Zunahme in LV-dp/dtmax, system= despinalisierten Meerschweinchen) for COc1ncc2[nH]c(-c3ccc4ccccc4c3)nc2n1 [Substanz C, 2-Methoxy-8-(naphth-2-yl)-purin]
-- reply 33%
